B1: Intersectin-1, residues 909 to 971; numbered along this chain, Q15811 (parent)
chain: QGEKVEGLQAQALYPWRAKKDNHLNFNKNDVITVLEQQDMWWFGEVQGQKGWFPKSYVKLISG

variants of: B1; assay: abundance fitness (aPCA) (normalised: wild type 0, dead -1); higher = more abundant; growth selection in yeast, the domain comes from the species named; settings: Homo sapiens
Metric: abundance fitness
Respond with the number and no other words.

The variant identified as QGEKVEGLQAQALYPWRAKKDNHLNFNKNDVITVLEQQDMWWFGELQGQKGWFPKSYVKLISG registered its abundance fitness at 0.079

Next:
The variant identified as QGEKVEGGQAQALYPWRAKKDNHLNFNKNDVITVLEQQDMWWFGEVQGQKGWFPKSYVKLISG registered its abundance fitness at -0.048

The variant identified as QGEKVEGLIAQALYPWRAKKDNHLNFNKNDVITVLEQQDMWWFGEVQGQKGWFPKSYVKLISG registered its abundance fitness at -0.172

The variant identified as QGEKVEGLQAQALYPWRAKKDNHLNFNKNDVITVLEQQDMWDFGEVQGQKGWFPKSYVKLISG registered its abundance fitness at -0.429

The variant identified as QGEKVEGLQAQALYPWRCKKDNHLNFNKNDVITVLEQQDMWWFGEVQGQKGWFPKSYVKLISG registered its abundance fitness at -0.189

The variant identified as QGEKVEGLQAQALYPWRMKKDNHLNFNKNDVITVLEQQDMWWFGEVQGQKGWFPKSYVKLISG registered its abundance fitness at -0.09

The variant identified as QGEKVEGLQAQALYPWRAKKDNHLNFNKNDVITVLEQQDMMWFGEVQGQKGWFPKSYVKLISG registered its abundance fitness at -0.071

The variant identified as QGEKVEGLQAQALYPWRAKKDNHLNFNKNCVITVLEQQDMWWFGEVQGQKGWFPKSYVKLISG registered its abundance fitness at -0.166
